Method: ACEA_AR_agonist_AUC_viability: ACEA Biosciences xCELLigence Real-Time Cell Analysis on Androgen Receptor Agonism for Viability (AID 2283775)
Records with an inconclusive call do not appear. Activity calls are given as the source filed them. Rule for the calls: active = hit-call score of the fitted dose curve at least 0.9, where 1 is the maximum; inconclusive = response in the unintended direction; inactive = score below 0.9.
Choose the fitting class; nothing outside active, inactive is accepted.

**Query** Called result for NCCN1CCNCC1
**Result** inactive

**Query** What was the test verdict on C=C(C)C(N)=O ?
**Result** inactive

**Query** Tell me the assay call for CC(=O)c1ccc(O)cc1 please.
**Result** inactive

**Query** Returns: the outcome recorded for CC1=CCC(C(C)(C)O)CC1 (configuration not stated) in this assay.
**Result** inactive

**Query** Which outcome was assigned to COC(=O)c1ccc(C(=O)OC)cc1 in this test?
**Result** inactive

**Query** // return assay outcome for CC(=O)OC(C)(C)C1CC=C(C)CC1 (configuration not stated)
**Result** inactive

**Query** What did the test return for CCCCCCOc1ccc(O)cc1 ?
**Result** active

**Query** Could you kindly confirm the outcome this assay logged for COc1ccc(OC)cc1 ?
**Result** inactive

**Query** Could you kindly confirm the outcome this assay logged for O=C1OC2(c3ccc(O)cc3Oc3cc(O)ccc32)c2ccccc21 ?
**Result** inactive

**Query** Would you mind telling me which call this test gave CCCCCCCCCOS(=O)(=O)O ?
**Result** inactive

**Query** # outcome recorded in this test, key = CC(O)CN (configuration not stated)
**Result** inactive

**Query** What did the test return for CC(=O)OC(C)(C)C ?
**Result** inactive

**Query** For CC(=O)C1C(=O)C=C(C)OC1=O (configuration not stated) , what call appears in the results of this test?
**Result** inactive

**Query** Please share the test call associated with c1ccc(Cc2ccccc2)cc1 .
**Result** inactive

**Query** Tell me the recorded outcome of this test for c1ccc2scnc2c1 .
**Result** inactive

**Query** Please indicate how the test categorized Cc1cccc(O)c1 .
**Result** inactive

**Query** What did this assay record as the result for COc1cc(OC)c2ccc(=O)oc2c1 ?
**Result** active
